# credit: patent US20040253247A1

target: rat albumin (rat, UniProt P02770 25-608); test: phage ELISA
Sequence (P02770 25-608 limits assumed): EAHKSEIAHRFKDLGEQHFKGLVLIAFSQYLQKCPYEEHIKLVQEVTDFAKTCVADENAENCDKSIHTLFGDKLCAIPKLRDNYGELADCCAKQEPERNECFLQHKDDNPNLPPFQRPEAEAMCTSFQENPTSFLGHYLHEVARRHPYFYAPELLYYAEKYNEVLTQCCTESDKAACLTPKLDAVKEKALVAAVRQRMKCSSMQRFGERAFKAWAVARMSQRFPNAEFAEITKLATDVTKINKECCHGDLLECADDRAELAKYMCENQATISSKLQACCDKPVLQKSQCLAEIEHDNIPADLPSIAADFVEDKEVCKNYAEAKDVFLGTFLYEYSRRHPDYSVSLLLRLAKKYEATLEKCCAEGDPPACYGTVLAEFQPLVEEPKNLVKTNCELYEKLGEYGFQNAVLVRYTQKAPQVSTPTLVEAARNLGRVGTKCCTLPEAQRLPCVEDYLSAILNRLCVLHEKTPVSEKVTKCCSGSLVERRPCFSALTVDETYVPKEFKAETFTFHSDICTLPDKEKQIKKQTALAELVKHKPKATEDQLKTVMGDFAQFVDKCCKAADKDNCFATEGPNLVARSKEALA
Where no end group is shown, it is not given here.
measured.attribute: binding result

Field: example entries. Status: answers known.
[[record]]
binder = "KSCSELHWLLVEECLF (phage clone selected on rabbit SA) [BD]"
measured_attribute = "binding result"
meas_value = "no binding"

[[record]]
binder = "DLCDVDFCWF (phage clone selected on rabbit SA) [BC]"
measured_attribute = "binding result"
meas_value = "no binding"

[[record]]
binder = "RAPESFVCYWETICFERSEQ (not fully specified (bridges); printed as Arg-Ala-Pro-Glu-Ser-Phe-Val-Cys-Tyr-Trp-Glu-Thr-Ile-Cys-Phe-Glu-Arg-Ser-Glu-Gln; cysteine pairing not given here, phage clone selected on human SA) [HB]"
measured_attribute = "binding result"
meas_value = "binds"

[[record]]
binder = "EMCYFPGICWM (not fully specified (bridges); printed as Glu-Met-Cys-Tyr-Phe-Pro-Gly-Ile-Cys-Trp-Met; cysteine pairing not given here, phage clone selected on human SA) [HC]"
measured_attribute = "binding result"
meas_value = "binds"

[[record]]
binder = "GENWCDSTLMAYDLCGQVNM (phage clone selected on rabbit SA) [BA]"
measured_attribute = "binding result"
meas_value = "no binding"

[[record]]
binder = "EVRSFCTDWPAEKSCKPLRG (not fully specified (bridges); printed as Glu-Val-Arg-Ser-Phe-Cys-Thr-Asp-Trp-Pro-Ala-Glu-Lys-Ser-Cys-Lys-Pro-Leu-Arg-Gly; cysteine pairing not given here, phage clone selected on human SA) [HA]"
measured_attribute = "binding result"
meas_value = "no binding"


// switching to the query binder
### Prompt Bench note: what binding result did MDELAFYCGIWECLMHQEQK (phage clone selected on rabbit SA) [BB] show?
### Response no binding
